- system.under.test: Tah1 (Saccharomyces cerevisiae)
- Sequence (P25638 whole entry): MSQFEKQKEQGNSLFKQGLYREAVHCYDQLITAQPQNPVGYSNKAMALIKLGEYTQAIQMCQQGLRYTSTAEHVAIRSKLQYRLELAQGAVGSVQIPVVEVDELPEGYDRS
- method: ITC of peptides injected into Tah1
- Assay type: binding, S. cerevisiae
pKd: −log10 of the molar value. Ends that are not written are not given here.
# pKd >= 5 gives 1 (yes), anything below gives 0 (no)

Before answering, review these 3 worked examples.
>  <sequence.text>
AEGPTMEEVD

>  <group.label>
1 (yes)

$$$$
>  <sequence.text>
AEGPTAEEVD

>  <group.label>
0 (no)

$$$$
>  <sequence.text>
PADAAMEEVD

>  <group.label>
1 (yes)

$$$$

Read the next record carefully.
Hello, I need to know if "PADTEAEEVD" has measured pKd not below 5. Thanks!
1 (yes)
